System: UniProt Q01959 | Read-out: AC50
Sequence (Q01959 whole entry): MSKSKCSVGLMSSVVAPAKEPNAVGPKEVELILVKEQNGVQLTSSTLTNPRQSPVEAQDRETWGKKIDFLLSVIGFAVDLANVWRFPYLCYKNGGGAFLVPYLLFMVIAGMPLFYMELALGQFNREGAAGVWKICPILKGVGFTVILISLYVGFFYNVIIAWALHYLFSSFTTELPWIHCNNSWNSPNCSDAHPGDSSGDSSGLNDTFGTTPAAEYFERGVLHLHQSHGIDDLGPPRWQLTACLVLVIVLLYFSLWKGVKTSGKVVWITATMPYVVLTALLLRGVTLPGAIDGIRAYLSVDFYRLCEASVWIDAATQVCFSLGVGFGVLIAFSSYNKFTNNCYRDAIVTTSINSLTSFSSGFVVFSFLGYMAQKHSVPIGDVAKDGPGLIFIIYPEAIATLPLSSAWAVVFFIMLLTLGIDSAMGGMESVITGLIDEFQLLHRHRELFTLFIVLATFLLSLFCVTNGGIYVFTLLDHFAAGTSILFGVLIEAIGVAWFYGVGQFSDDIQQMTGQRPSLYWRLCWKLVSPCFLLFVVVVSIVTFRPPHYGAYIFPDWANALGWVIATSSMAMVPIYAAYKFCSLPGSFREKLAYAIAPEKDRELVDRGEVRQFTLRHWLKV
test readout: AC50

> print(dat)
                                   compound  readout.value
1  COc1c(O[C@@H]2O[C@H](CO)[C@@H](O)[C@H](O)[C@H]2O)cc2c(c1OC)-c1ccc(SC)c(=O)cc1[C@@H](NC(C)=O)CC2 [THIOCOLCHICOSIDE]        > 30 µM
2  NS(=O)(=O)c1cc(C2(O)NC(=O)c3ccccc32)ccc1Cl (stereo not drawn) [CHLORTHALIDONE]        > 10 µM
3  CCCCCCOC(=O)CCC(=O)CN [HEXAMINOLEVULINATE]        > 30 µM
4  CC1(C)O[C@@H]2[C@@H](CO[C@@]3(COS(N)(=O)=O)OC(C)(C)O[C@@H]23)O1 [TOPIRAMATE]        > 10 µM
5  CC(=O)OCC(=O)[C@@]1(O)CC[C@H]2[C@@H]3CCC4=CC(=O)CC[C@]4(C)C3=CC[C@@]21C [ANECORTAVE ACETATE]        > 10 µM
6  COc1cc2nccc(Oc3ccc(NC(=O)Nc4cc(C)on4)c(Cl)c3)c2cc1OC [TIVOZANIB]         2.6 µM
7  CNC(=O)c1cc(Oc2ccc(NC(=O)Nc3ccc(Cl)c(C(F)(F)F)c3)c(F)c2)ccn1 [REGORAFENIB]        6.33 µM
8  COc1cc(OC)c(C(=O)CCCN2CCCC2)c(OC)c1 [BUFLOMEDIL]        > 30 µM

----------
*1 amine or outer side, *2 acyl side, *3 side chain or, on linkers, in order; H or OH if unused. Where a SMILES comes first, the peptide text is derived from it. Bridges are numbered along the chain shown (N, C = ends). [ ]: non-standard residue; d: D form. The star is where a group is joined. hTyr(3S-OH,4S-OH,3'-OSO3H) = N[C@H](C(=O)O)[C@H](O)[C@@H](O)c1ccc(O)c(OS(=O)(=O)O)c1; Orn(4R-OH,5R-OH) = O=C([C@H](C[C@@H](O)[C@@H](O)N[*:3])N[*:1])[*:2]; Pro(3S-OH,4S-Me) = C[C@H]1CN[C@H](C(=O)O)[C@H]1O; X1 = CCCCCOc1ccc(-c2cc(-c3ccc(C(=O)*)cc3)no2)cc1; Gln(3R-OH) = NC(=O)C[C@@H](O)[C@H](N)C(=O)O; Hyp = O=C(O)[C@@H]1C[C@@H](O)CN1
Let's go through some recorded AC50 values for Alpha-2A adrenergic receptor (Homo sapiens, UniProt P08913) together.

molecule	AC50
O=C(O)CCCc1ccc(N(CCCl)CCCl)cc1	> 30 µM
CCCCCOc1ccc(-c2cc(-c3ccc(C(=O)N[C@H]4C[C@@H](O)[C@@H](O)NC(=O)[C@@H]5[C@@H](O)[C@@H](C)CN5C(=O)[C@H]([C@H](O)CC(N)=O)NC(=O)[C@H]([C@H](O)[C@@H](O)c5ccc(O)c(OS(=O)(=O)O)c5)NC(=O)[C@@H]5C[C@@H](O)CN5C(=O)[C@H]([C@@H](C)O)NC4=O)cc3)no2)cc1 [MICAFUNGIN] (X1-[Orn(4R-OH,5R-OH)]T[Hyp][hTyr(3S-OH,4S-OH,3'-OSO3H)][Gln(3R-OH)][Pro(3S-OH,4S-Me)]; lactam 1-C)	> 30 µM
C[C@H](N)C(=O)O	> 30 µM
NCCCC(O)(P(=O)(O)O)P(=O)(O)O	> 30 µM
NC(=O)NS(=O)(=O)c1ccc(N)cc1 [SULFACARBAMIDE]	> 30 µM
O=C(O)COc1nn(Cc2ccccc2)c2ccccc12	> 30 µM

----------
molecular target: Neuronal acetylcholine receptor subunit alpha-4 (Homo sapiens, UniProt P43681); also: assay procedure not described here
Sequence (P43681 whole entry): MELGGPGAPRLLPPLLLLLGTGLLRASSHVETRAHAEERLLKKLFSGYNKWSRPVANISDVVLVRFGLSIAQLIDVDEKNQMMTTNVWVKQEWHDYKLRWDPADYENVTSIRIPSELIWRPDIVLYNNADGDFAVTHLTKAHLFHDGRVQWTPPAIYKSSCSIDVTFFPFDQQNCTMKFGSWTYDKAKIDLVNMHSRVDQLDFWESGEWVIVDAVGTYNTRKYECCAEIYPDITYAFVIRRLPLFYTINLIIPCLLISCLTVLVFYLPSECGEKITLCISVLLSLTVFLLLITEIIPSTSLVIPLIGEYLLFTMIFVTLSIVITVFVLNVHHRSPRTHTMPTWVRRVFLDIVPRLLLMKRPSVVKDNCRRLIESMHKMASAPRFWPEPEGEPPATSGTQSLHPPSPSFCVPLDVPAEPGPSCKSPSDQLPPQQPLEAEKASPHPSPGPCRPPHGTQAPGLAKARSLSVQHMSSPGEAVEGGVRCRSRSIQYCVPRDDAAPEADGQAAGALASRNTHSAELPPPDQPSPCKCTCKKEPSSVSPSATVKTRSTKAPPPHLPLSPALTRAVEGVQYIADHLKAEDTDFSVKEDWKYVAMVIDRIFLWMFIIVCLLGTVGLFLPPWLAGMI
AC50 for assorted compounds
test readout: AC50

compound	readout value
C#Cc1cccc(Nc2ncnc3cc(OCCOC)c(OCCOC)cc23)c1	> 30 µM
COc1cccc(N(C)C(=S)Oc2ccc3c(c2)CCCC3)n1 [LIRANAFTATE]	> 30 µM
CNCCC=C1c2ccccc2CCc2ccccc21	> 30 µM
COc1cc2nccc(Oc3ccc(NC(=O)Nc4cc(C)on4)c(Cl)c3)c2cc1OC	> 3 µM
CC(=O)/N=c1/sc(S(N)(=O)=O)nn1C [METHAZOLAMIDE]	> 10 µM
C[C@@H]1CCC[C@H](C)N1NC(=O)c1ccc(Cl)c(S(N)(=O)=O)c1 [CLOPAMIDE]	> 30 µM
COc1ccc(/C=C/C(=O)Nc2ccccc2C(=O)O)cc1OC	> 30 µM
Clc1ccc(C(Cn2ccnc2)OCc2ccc(Sc3ccccc3)cc2)c(Cl)c1 (configuration not stated)	> 10 µM
CCCCCCOC(=O)CCC(=O)CN [HEXAMINOLEVULINATE]	> 30 µM
CCc1oc2ccccc2c1C(=O)c1cc(Br)c(O)c(Br)c1	> 30 µM
O=C(Nc1c(Cl)cncc1Cl)c1ccc(OC(F)F)c(OCC2CC2)c1	> 30 µM
CC1(C)C(/C=C/C=C/C=C/C=C2\N(CCCCS(=O)(=O)O)c3ccc4ccccc4c3C2(C)C)=[N+](CCCCS(=O)(=O)[O-])c2ccc3ccccc3c21 [INDOCYANINE GREEN ACID FORM]	> 30 µM
O=C1CN2Cc3c(ccc(Cl)c3Cl)N=C2N1 [ANAGRELIDE]	> 10 µM
CNC[C@H](O)c1cccc(O)c1	> 10 µM
CN(c1nccc(=O)[nH]1)C1CCN(c2nc3ccccc3n2Cc2ccc(F)cc2)CC1	> 30 µM
COc1cc(OC)c(C(=O)CCCN2CCCC2)c(OC)c1	> 30 µM
CC[C@H]1OC(=O)[C@H](C)[C@@H](O[C@H]2C[C@@](C)(OC)[C@@H](O)[C@H](C)O2)[C@H](C)[C@@H](O[C@@H]2O[C@H](C)C[C@H](N(C)C)[C@H]2O)[C@](C)(O)C[C@@H](C)/C(=N\OCOCCOC)[C@H](C)[C@@H](O)[C@]1(C)O	> 30 µM

----------
biological target: Acetylcholinesterase (Homo sapiens); assay type: functional; also: assay procedure not described here
Sequence (P22303 whole entry): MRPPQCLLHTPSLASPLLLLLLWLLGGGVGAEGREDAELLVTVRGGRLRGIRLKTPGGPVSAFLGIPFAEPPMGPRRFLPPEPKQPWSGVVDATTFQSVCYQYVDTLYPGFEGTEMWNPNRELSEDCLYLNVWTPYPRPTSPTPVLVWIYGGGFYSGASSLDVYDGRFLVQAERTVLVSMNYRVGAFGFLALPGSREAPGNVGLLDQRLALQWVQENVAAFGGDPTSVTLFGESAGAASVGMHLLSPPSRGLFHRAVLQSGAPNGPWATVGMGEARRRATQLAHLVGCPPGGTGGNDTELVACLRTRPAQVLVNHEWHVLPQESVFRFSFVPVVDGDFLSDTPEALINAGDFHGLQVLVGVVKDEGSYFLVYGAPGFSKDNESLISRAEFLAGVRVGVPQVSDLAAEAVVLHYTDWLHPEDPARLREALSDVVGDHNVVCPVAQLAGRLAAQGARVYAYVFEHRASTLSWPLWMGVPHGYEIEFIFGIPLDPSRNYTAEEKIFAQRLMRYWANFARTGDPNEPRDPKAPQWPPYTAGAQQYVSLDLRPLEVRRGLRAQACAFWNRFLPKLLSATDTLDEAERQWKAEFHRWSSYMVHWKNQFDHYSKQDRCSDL
test readout: AC50

> print(dat)
                                   compound  test.readout  readout.value
1  C=CC[C@]1(O)CC[C@H]2[C@@H]3CCC4=CCCC[C@@H]4[C@H]3CC[C@@]21C          AC50        > 30 µM
2  Cc1ccc([C@@H]2O[C@H](CO)[C@@H](O)[C@H](O)[C@H]2O)cc1Cc1ccc(-c2ccc(F)cc2)s1 [CANAGLIFLOZIN ANHYDROUS]          AC50        > 30 µM
3  CC1(C)O[C@@H]2[C@@H](CO[C@@]3(COS(N)(=O)=O)OC(C)(C)O[C@@H]23)O1 [TOPIRAMATE]          AC50        > 30 µM
4              O=C1c2c(O)cccc2Cc2cccc(O)c21          AC50        > 30 µM
5  CCOC(=O)C1=C(COCCN)NC(C)=C(C(=O)OC)[C@@H]1c1ccccc1Cl          AC50        > 30 µM
6  Cc1cc(CCN2CCN(c3cccc(Cl)c3)CC2)n[nH]1 [MEPIPRAZOLE]          AC50        > 30 µM
7  Nc1nc(N)nc(Nc2ccc([As]3SCC(CO)S3)cc2)n1 (stereo not drawn)          AC50        > 30 µM
8  COC(=O)C1=C(C)NC(C)=C(C(=O)O[C@H]2CCN(Cc3ccccc3)C2)[C@H]1c1cccc([N+](=O)[O-])c1          AC50        > 30 µM

----------
Biological target: UniProt P25929
Sequence (P25929 whole entry): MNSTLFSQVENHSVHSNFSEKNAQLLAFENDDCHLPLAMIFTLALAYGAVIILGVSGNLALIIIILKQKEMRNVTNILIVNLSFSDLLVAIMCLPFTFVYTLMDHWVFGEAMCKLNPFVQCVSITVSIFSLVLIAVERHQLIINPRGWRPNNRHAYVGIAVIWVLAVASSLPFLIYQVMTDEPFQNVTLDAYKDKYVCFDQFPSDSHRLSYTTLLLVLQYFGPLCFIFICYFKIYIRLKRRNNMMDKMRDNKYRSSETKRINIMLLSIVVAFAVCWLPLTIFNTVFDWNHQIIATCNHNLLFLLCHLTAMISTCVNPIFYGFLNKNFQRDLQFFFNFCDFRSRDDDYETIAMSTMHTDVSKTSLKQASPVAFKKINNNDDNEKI
test readout: AC50

> print(dat)
                                    compound   tested.system  test.readout  readout.value
 1          CCCCCCNC(=O)n1cc(F)c(=O)[nH]c1=O  UniProt P25929          AC50        > 30 µM
 2                      Nc1ccc(C(=O)O)c(O)c1  UniProt P25929          AC50        > 30 µM
 3  CC1(C)C(C=C(Cl)Cl)C1C(=O)OCc1cccc(Oc2ccccc2)c1 (stereo not given)  UniProt P25929          AC50        > 10 µM
 4   O=c1oc2ccccc2c(O)c1Cc1c(O)c2ccccc2oc1=O  UniProt P25929          AC50        > 10 µM
 5                Cn1c(=O)c2[nH]cnc2n(C)c1=O  UniProt P25929          AC50        > 30 µM
 6                CS(=O)(=O)OCCCCOS(C)(=O)=O  UniProt P25929          AC50        > 30 µM
 7  O=C(Nc1nc(-c2cc(Cl)cs2)c(N2CCN(C3CCCCC3)CC2)s1)c1cnc(N2CCC(C(=O)O)CC2)c(Cl)c1  UniProt P25929          AC50        > 10 µM
 8               CNCCCC1c2ccccc2C=Cc2ccccc21  UniProt P25929          AC50        > 10 µM
 9  CCCCC[C@H](O)/C=C/[C@H]1[C@H](O)CC(=O)[C@@H]1C/C=C\CCCC(=O)O  UniProt P25929          AC50        > 30 µM
10              CCCN(CCC)CCc1cccc2c1CC(=O)N2  UniProt P25929          AC50        > 30 µM
